Here, each record is paired with measured pKd data.
# Measured Target: T1, Human C5 (human, UniProt P01031 19-1676)
# T1 construct: The natural protein has a beta and an alpha chain; also called complement factor 5; complement component 5
# Test Protocol: SPR, mAb captured by anti-hFc, 25C
Scale explanation: pKd corresponds to minus log10 of a concentration expressed in moles per litre.

Binder	pKd
H4H12166P4 (antibody, human IgG4, V domains shown, human IgG4 Fc with S108P hinge mutation) VH: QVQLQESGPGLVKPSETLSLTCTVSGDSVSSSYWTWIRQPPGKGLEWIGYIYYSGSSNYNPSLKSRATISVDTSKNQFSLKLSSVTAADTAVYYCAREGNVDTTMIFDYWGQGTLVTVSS VL: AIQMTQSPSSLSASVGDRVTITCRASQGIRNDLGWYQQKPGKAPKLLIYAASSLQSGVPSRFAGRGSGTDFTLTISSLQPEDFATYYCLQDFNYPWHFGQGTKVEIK	9.40

Switching to the query record.
Report measured pKd; entry is H4H12163P (antibody, human IgG4, V domains shown) VH: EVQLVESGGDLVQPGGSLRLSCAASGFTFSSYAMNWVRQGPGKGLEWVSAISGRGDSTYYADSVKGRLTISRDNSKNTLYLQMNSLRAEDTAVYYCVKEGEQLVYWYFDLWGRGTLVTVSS VL: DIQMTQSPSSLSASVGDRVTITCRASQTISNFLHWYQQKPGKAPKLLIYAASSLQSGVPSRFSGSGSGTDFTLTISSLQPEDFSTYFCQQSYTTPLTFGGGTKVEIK
9.49
